# credit: ChEMBL document CHEMBL5233202

assay: Stability in mouse plasma assessed as half life at 1 mM measured for 24 hrs by LC-MS analysis; assay type: ADME, cell-free
Non-standard residues stand in square brackets, D forms with d. Residues, ends and D or L forms follow the SMILES beside them. Phe(4-Br) = N[C@@H](Cc1ccc(Br)cc1)C(=O)O; NMeCha = CN[C@@H](CC1CCCCC1)C(=O)O; hArg = N=C(N)NCCCC[C@H](N)C(=O)O; Nle = CCCC[C@H](N)C(=O)O; Aib = CC(C)(N)C(=O)O
reported.endpoint: half-life at 1000 µM (min)
Answer in min, number only, no unit symbol.

## Task Dear colleague, I am looking for the recorded half-life at 1000 µM of the following molecule: CCCC[C@H](NC(=O)[C@@H]1CCCN1C(=O)CNC(=O)[C@H](CCCCN)NC(=O)[C@H](Cc1c[nH]cn1)NC(=O)[C@H](CO)NC(=O)[C@H](CC1CCCCC1)N(C)C(=O)[C@H](CCCCNC(=N)N)NC(=O)[C@@H]1CCCN1C(=O)[C@H](CCCNC(=N)N)NC(=O)[C@H](CCC(N)=O)NC(=O)[C@H](CCCNC(=N)N)NC(=O)[C@H](CCCNC(=N)N)NC(=O)[C@H](Cc1ccccc1)NC(=O)[C@@H](N)CCCCN)C(=O)NC(C)(C)C(=O)N[C@@H](Cc1ccc(Br)cc1)C(=O)O (H-KFRRQRP[hArg][NMeCha]SHKGP[Nle][Aib][Phe(4-Br)]-OH)
## Result 21.6

---

Molecular target: Apelin receptor (Homo sapiens, UniProt P35414)
Sequence (P35414 whole entry): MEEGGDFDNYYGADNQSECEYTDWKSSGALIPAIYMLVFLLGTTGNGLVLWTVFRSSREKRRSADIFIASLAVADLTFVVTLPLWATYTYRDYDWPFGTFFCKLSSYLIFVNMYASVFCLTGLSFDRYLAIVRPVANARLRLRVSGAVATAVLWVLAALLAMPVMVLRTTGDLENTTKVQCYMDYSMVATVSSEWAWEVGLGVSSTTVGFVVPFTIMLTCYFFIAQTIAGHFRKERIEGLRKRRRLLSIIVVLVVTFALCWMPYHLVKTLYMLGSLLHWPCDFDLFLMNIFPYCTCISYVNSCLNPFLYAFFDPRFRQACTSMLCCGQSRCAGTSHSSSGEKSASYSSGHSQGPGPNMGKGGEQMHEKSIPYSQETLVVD
Assay: Activation of recombinant human APJ receptor expressed in rat Chem-5 cells assessed as increase in Ca2+ mobilization by FLIPR Calcium 6-QF fluorescent dye based assay
Non-standard residues stand in square brackets, D forms with d. Residues, ends and D or L forms follow the SMILES beside them. Phe(4-Br) = N[C@@H](Cc1ccc(Br)cc1)C(=O)O; Cha = N[C@@H](CC1CCCCC1)C(=O)O; Nle = CCCC[C@H](N)C(=O)O; Aib = CC(C)(N)C(=O)O
reported.endpoint: pEC50
// scale note: pEC50 = -log10(conc_M); give the bare number

## Task Dear colleague, I am looking for the recorded pEC50 of the following molecule: CCCC[C@H](NC(=O)[C@@H]1CCCN1C(=O)CNC(=O)[C@H](CCCCN)NC(=O)[C@H](Cc1c[nH]cn1)NC(=O)[C@H](CO)NC(=O)[C@H](CC1CCCCC1)NC(=O)[C@H](CCCNC(=N)N)NC(=O)[C@@H]1CCCN1C(=O)[C@H](CCCNC(=N)N)NC(=O)[C@H](CCC(N)=O)NC(=O)[C@H](CCCNC(=N)N)NC(=O)[C@H](CCCNC(=N)N)NC(=O)[C@H](Cc1ccccc1)NC(=O)[C@@H](N)CCCCN)C(=O)NC(C)(C)C(=O)N[C@@H](Cc1ccc(Br)cc1)C(=O)O (H-KFRRQRPR[Cha]SHKGP[Nle][Aib][Phe(4-Br)]-OH)
## Result 8.42

---

biological target: Apelin receptor (Homo sapiens); experiment: Activation of recombinant human APJ receptor expressed in rat Chem-5 cells assessed as increase in Ca2+ mobilization by FLIPR Calcium 6-QF fluorescent dye based assay
Non-standard residues stand in square brackets, D forms with d. Residues, ends and D or L forms follow the SMILES beside them. Phe(4-Br) = N[C@@H](Cc1ccc(Br)cc1)C(=O)O; hArg = N=C(N)NCCCC[C@H](N)C(=O)O; Nle = CCCC[C@H](N)C(=O)O; Aib = CC(C)(N)C(=O)O
reported.endpoint: pEC50
// scale note: pEC50 = -log10(conc_M); give the bare number

## Task Lookup: pEC50 / Apelin receptor (Homo sapiens) / CCCC[C@H](NC(=O)[C@@H]1CCCN1C(=O)CNC(=O)[C@H](CCCCN)NC(=O)[C@H](Cc1c[nH]cn1)NC(=O)[C@H](CO)NC(=O)[C@H](CC(C)C)NC(=O)[C@H](CCCCNC(=N)N)NC(=O)[C@@H]1CCCN1C(=O)[C@H](CCCNC(=N)N)NC(=O)[C@H](CCC(N)=O)NC(=O)[C@H](CCCNC(=N)N)NC(=O)[C@H](CCCNC(=N)N)NC(=O)[C@H](Cc1ccccc1)NC(=O)[C@@H](N)CCCCN)C(=O)NC(C)(C)C(=O)N[C@@H](Cc1ccc(Br)cc1)C(=O)O (H-KFRRQRP[hArg]LSHKGP[Nle][Aib][Phe(4-Br)]-OH)
## Result 8.17

---

molecular target: Apelin receptor (Homo sapiens); experiment: Activation of recombinant human APJ receptor expressed in rat Chem-5 cells assessed as increase in Ca2+ mobilization by FLIPR Calcium 6-QF fluorescent dye based assay
reported.endpoint: EC50

* CCCC[C@H](NC(=O)[C@@H]1CCCN1C(=O)CNC(=O)[C@H](CCCCN)NC(=O)[C@H](Cc1c[nH]cn1)NC(=O)[C@H](CO)NC(=O)[C@H](CC(C)C)NC(=O)[C@H](CCCNC(=N)N)NC(=O)[C@@H]1CCCN1C(=O)[C@H](CCCNC(=N)N)NC(=O)[C@@H]1CCC(=O)N1)C(=O)NC(C)(C)C(=O)N[C@@H](Cc1ccc(Br)cc1)C(=O)O | 4.27 nM

## Task Dear colleague, I am looking for the recorded EC50 of the following compound: CCCC[C@H](NC(=O)[C@@H]1CCCN1C(=O)CNC(=O)[C@H](CCCCN)NC(=O)[C@H](Cc1c[nH]cn1)NC(=O)[C@H](CO)NC(=O)[C@H](CC1CCCCC1)NC(=O)[C@H](CCCNC(=N)N)NC(=O)[C@@H]1CCCN1C(=O)[C@H](CCCNC(=N)N)NC(=O)[C@@H]1CCC(=O)N1)C(=O)NC(C)(C)C(=O)N[C@@H](Cc1ccc(Br)cc1)C(=O)O
## Result 2.4 nM

---

test: Protein binding in pooled human plasma at 100 uM incubated for 3 hrs by equilibrium dialysis method; assay type: ADME, cell-free; details: read-out: PPB (converted)
Non-standard residues stand in square brackets, D forms with d. Residues, ends and D or L forms follow the SMILES beside them. Phe(4-Br) = N[C@@H](Cc1ccc(Br)cc1)C(=O)O; NMeCha = CN[C@@H](CC1CCCCC1)C(=O)O; hArg = N=C(N)NCCCC[C@H](N)C(=O)O; Cha = N[C@@H](CC1CCCCC1)C(=O)O; NMeL = CN[C@@H](CC(C)C)C(=O)O; Nle = CCCC[C@H](N)C(=O)O; Aib = CC(C)(N)C(=O)O
Readings of fraction unbound at 3 h, 100 µM for the listed molecules
In your answer, state the number alone without any accompanying words.

Sample answers from the record:
- CCCC[C@H](NC(=O)[C@@H]1CCCN1C(=O)CNC(=O)[C@H](CCCCN)NC(=O)[C@H](Cc1c[nH]cn1)NC(=O)[C@H](CO)NC(=O)[C@H](CC1CCCCC1)NC(=O)[C@H](CCCCNC(=N)N)NC(=O)[C@@H]1CCCN1C(=O)[C@H](CCCNC(=N)N)NC(=O)[C@H](CCC(N)=O)NC(=O)[C@H](CCCNC(=N)N)NC(=O)[C@H](CCCNC(=N)N)NC(=O)[C@H](Cc1ccccc1)NC(=O)[C@@H](N)CCCCN)C(=O)NC(C)(C)C(=O)N[C@@H](Cc1ccc(Br)cc1)C(=O)O (H-KFRRQRP[hArg][Cha]SHKGP[Nle][Aib][Phe(4-Br)]-OH): 0.35
- CCCC[C@H](NC(=O)[C@@H]1CCCN1C(=O)CNC(=O)[C@H](CCCCN)NC(=O)[C@H](Cc1c[nH]cn1)NC(=O)[C@H](CO)NC(=O)[C@H](CC1CCCCC1)N(C)C(=O)[C@H](CCCNC(=N)N)NC(=O)[C@@H]1CCCN1C(=O)[C@H](CCCNC(=N)N)NC(=O)[C@H](CCC(N)=O)NC(=O)[C@H](CCCNC(=N)N)NC(=O)[C@H](CCCNC(=N)N)NC(=O)[C@H](Cc1ccccc1)NC(=O)[C@@H](N)CCCCN)C(=O)NC(C)(C)C(=O)N[C@@H](Cc1ccc(Br)cc1)C(=O)O (H-KFRRQRPR[NMeCha]SHKGP[Nle][Aib][Phe(4-Br)]-OH): 0.32
- CCCC[C@H](NC(=O)[C@@H]1CCCN1C(=O)CNC(=O)[C@H](CCCCN)NC(=O)[C@H](Cc1c[nH]cn1)NC(=O)[C@H](CO)NC(=O)[C@H](CC(C)C)N(C)C(=O)[C@H](CCCNC(=N)N)NC(=O)[C@@H]1CCCN1C(=O)[C@H](CCCNC(=N)N)NC(=O)[C@H](CCC(N)=O)NC(=O)[C@H](CCCNC(=N)N)NC(=O)[C@H](CCCNC(=N)N)NC(=O)[C@H](Cc1ccccc1)NC(=O)[C@@H](N)CCCCN)C(=O)NC(C)(C)C(=O)N[C@@H](Cc1ccc(Br)cc1)C(=O)O (H-KFRRQRPR[NMeL]SHKGP[Nle][Aib][Phe(4-Br)]-OH): 0.45
- CCCC[C@H](NC(=O)[C@@H]1CCCN1C(=O)CNC(=O)[C@H](CCCCN)NC(=O)[C@H](Cc1c[nH]cn1)NC(=O)[C@H](CO)NC(=O)[C@H](CC1CCCCC1)N(C)C(=O)[C@H](CCCCNC(=N)N)NC(=O)[C@@H]1CCCN1C(=O)[C@H](CCCNC(=N)N)NC(=O)[C@H](CCC(N)=O)NC(=O)[C@H](CCCNC(=N)N)NC(=O)[C@H](CCCNC(=N)N)NC(=O)[C@H](Cc1ccccc1)NC(=O)[C@@H](N)CCCCN)C(=O)NC(C)(C)C(=O)N[C@@H](Cc1ccc(Br)cc1)C(=O)O (H-KFRRQRP[hArg][NMeCha]SHKGP[Nle][Aib][Phe(4-Br)]-OH): 0.31

// moving on: another record for fraction unbound at 3 h, 100 µM
## Task Dear colleague, I am looking for the recorded fraction unbound at 3 h, 100 µM of the following molecule: CCCC[C@H](NC(=O)[C@@H]1CCCN1C(=O)CNC(=O)[C@H](CCCCN)NC(=O)[C@H](Cc1c[nH]cn1)NC(=O)[C@H](CO)NC(=O)[C@H](CC(C)C)NC(=O)[C@H](CCCNC(=N)N)NC(=O)[C@@H]1CCCN1C(=O)[C@H](CCCNC(=N)N)NC(=O)[C@H](CCC(N)=O)NC(=O)[C@H](CCCNC(=N)N)NC(=O)[C@H](CCCNC(=N)N)NC(=O)[C@H](Cc1ccccc1)NC(=O)[C@@H](N)CCCCN)C(=O)NC(C)(C)C(=O)N[C@@H](Cc1ccc(Br)cc1)C(=O)O (H-KFRRQRPRLSHKGP[Nle][Aib][Phe(4-Br)]-OH)
## Result 0.43
